The values you see were collected from patent US20260042764A1.

# target: Avi-KRAS G12V (1-169) GppNHp/RAF1 RBD-3xFLAG (52-151) (Homo sapiens, UniProt P01116, G12V)
# Construct: Avi-KRAS G12V (1-169)
# Sequence (P01116 1-169 isoform P01116-2 G12V): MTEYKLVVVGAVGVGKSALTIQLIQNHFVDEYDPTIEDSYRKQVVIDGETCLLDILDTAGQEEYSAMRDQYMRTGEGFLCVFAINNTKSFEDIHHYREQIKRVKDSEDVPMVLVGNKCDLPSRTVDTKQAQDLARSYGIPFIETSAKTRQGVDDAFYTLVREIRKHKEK
# assay.text: Raf1-KRAS G12V-GppNHP disruption HTRF assay (Biological Example 1)
# Assay type: binding
# conditions: KRAS G12V-GppNHp/RAF1 RBD HTRF
pIC50: −log10 of the molar value.
assay.endpoint: pIC50

A selection of reference data follows.
{"compound": "CCN(c1nc(OC[C@@]23CCCN2C[C@H](F)C3)nc2c(F)c(-c3ccc(F)c4sc(N)c(C#N)c34)c(C(F)(F)F)cc12)[C@H]1C[C@H](C)N(C(=O)C2COC2)C1 (atropisomer, axis not shown)", "target": "Avi-KRAS G12V (1-169) GppNHp/RAF1 RBD-3xFLAG (52-151) (Homo sapiens, UniProt P01116, G12V)", "pIC50": "> 7.00"}
{"compound": "N#Cc1c(N)sc2c(F)ccc(-c3c(C(F)(F)F)cc4c(N5CC6COC[C@H]6C5)nc(OC[C@@]56CCCN5C[C@H](F)C6)nc4c3F)c12 (stereo partly drawn)", "target": "Avi-KRAS G12V (1-169) GppNHp/RAF1 RBD-3xFLAG (52-151) (Homo sapiens, UniProt P01116, G12V)", "pIC50": "5.00 to 6.00"}

// moving on: another record for pIC50
Report pIC50 for "N#Cc1cnn2c1CN(c1nc(OC[C@@]34CCCN3C[C@H](F)C4)nc3c(F)c(-c4ccc(F)c5sc(N)c(C#N)c45)c(C(F)(F)F)cc13)CC2" please. 6.00 to 7.00

---

# target: Avi-KRAS G12R (1-169) GppNHp/RAF1 RBD-3xFLAG (52-151) (Homo sapiens, UniProt P01116, G12R)
# Construct: Avi-KRAS G12R (1-169)
# Sequence (P01116 1-169 isoform P01116-2 G12R): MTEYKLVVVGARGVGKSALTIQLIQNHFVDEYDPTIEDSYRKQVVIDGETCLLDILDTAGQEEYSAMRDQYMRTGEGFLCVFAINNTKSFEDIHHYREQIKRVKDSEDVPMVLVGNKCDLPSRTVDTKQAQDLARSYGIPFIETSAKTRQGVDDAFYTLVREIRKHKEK
# assay.text: Raf1-KRAS G12R-GppNHP disruption HTRF assay (Biological Example 1)
# Assay type: binding
# conditions: KRAS G12R-GppNHp/RAF1 RBD HTRF
pIC50: −log10 of the molar value.
assay.endpoint: pIC50

A selection of reference data follows.
{"molecule": "CCN(c1nc(OC[C@@]23CCCN2C[C@H](F)C3)nc2c(F)c(-c3ccc(F)c4sc(N)c(C#N)c34)c(C(F)(F)F)cc12)[C@H]1CCN(C(=O)CC#N)C1 (atropisomer, axis not shown)", "target": "Avi-KRAS G12R (1-169) GppNHp/RAF1 RBD-3xFLAG (52-151) (Homo sapiens, UniProt P01116, G12R)", "experimental.value": "> 7.00"}
{"molecule": "N#Cc1nnn2c1CN(c1nc(OC[C@@]34CCCN3C[C@H](F)C4)nc3c(F)c(-c4ccc(F)c5sc(N)c(C#N)c45)c(C(F)(F)F)cc13)CC2", "target": "Avi-KRAS G12R (1-169) GppNHp/RAF1 RBD-3xFLAG (52-151) (Homo sapiens, UniProt P01116, G12R)", "experimental.value": "6.00 to 7.00"}
{"molecule": "N#Cc1c(N)sc2c(F)ccc(-c3c(C(F)(F)F)cc4c(N5CCCCCC5)nc(OC[C@@]56CCCN5C[C@H](F)C6)nc4c3F)c12", "target": "Avi-KRAS G12R (1-169) GppNHp/RAF1 RBD-3xFLAG (52-151) (Homo sapiens, UniProt P01116, G12R)", "experimental.value": "6.00 to 7.00"}
{"molecule": "C[C@@H]1Cn2nncc2CN1c1nc(OC[C@@]23CCCN2C[C@H](F)C3)nc2c(F)c(-c3ccc(F)c4sc(N)c(C#N)c34)c(C(F)(F)F)cc12 (atropisomer, axis not shown)", "target": "Avi-KRAS G12R (1-169) GppNHp/RAF1 RBD-3xFLAG (52-151) (Homo sapiens, UniProt P01116, G12R)", "experimental.value": "6.00 to 7.00"}
{"molecule": "C[C@H]1[C@H](O)CCCN1c1nc(OC[C@@]23CCCN2C[C@H](F)C3)nc2c(F)c(-c3ccc(F)c4sc(N)c(C#N)c34)c(C(F)(F)F)cc12", "target": "Avi-KRAS G12R (1-169) GppNHp/RAF1 RBD-3xFLAG (52-151) (Homo sapiens, UniProt P01116, G12R)", "experimental.value": "6.00 to 7.00"}

Missing value: pIC50, Avi-KRAS G12R (1-169) GppNHp/RAF1 RBD-3xFLAG (52-151) (Homo sapiens, UniProt P01116, G12R), entry "C[C@@H]1[C@H](N(C)c2nc(OC[C@@]34CCCN3C[C@H](F)C4)nc3c(F)c(-c4ccc(F)c5sc(N)c(C#N)c45)c(C(F)(F)F)cc23)CCN1C(=O)C(C)(F)F" . Fill in? 6.00 to 7.00

Missing value: pIC50, Avi-KRAS G12R (1-169) GppNHp/RAF1 RBD-3xFLAG (52-151) (Homo sapiens, UniProt P01116, G12R), entry N#Cc1c(N)sc2c(F)ccc(-c3c(C(F)(F)F)cc4c(N5CCN6C(=O)OCC6C5)nc(OCC56CCCN5CC(F)C6)nc4c3F)c12 (centres unmarked) [Compound 431] . Fill in? 5.00 to 6.00

Missing value: pIC50, Avi-KRAS G12R (1-169) GppNHp/RAF1 RBD-3xFLAG (52-151) (Homo sapiens, UniProt P01116, G12R), entry CCC(=O)N1C[C@H](N(CC)c2nc(OC[C@@]34CCCN3C[C@H](F)C4)nc3c(F)c(-c4ccc(F)c5sc(N)c(C#N)c45)c(C(F)(F)F)cc23)C[C@@H]1C (atropisomer, axis not shown) . Fill in? 6.00 to 7.00

Missing value: pIC50, Avi-KRAS G12R (1-169) GppNHp/RAF1 RBD-3xFLAG (52-151) (Homo sapiens, UniProt P01116, G12R), entry "N#Cc1c(N)sc2c(F)ccc(-c3c(C(F)(F)F)cc4c(N5C[C@H]6C[C@@H]5CS6(=O)=O)nc(OC[C@@]56CCCN5C[C@H](F)C6)nc4c3F)c12" . Fill in? 6.00 to 7.00

Missing value: pIC50, Avi-KRAS G12R (1-169) GppNHp/RAF1 RBD-3xFLAG (52-151) (Homo sapiens, UniProt P01116, G12R), entry CCN(c1nc(OC[C@@]23CCCN2C[C@H](F)C3)nc2c(F)c(-c3ccc(F)c4sc(N)c(C#N)c34)c(C(F)(F)F)cc12)[C@H]1C[C@@H](C)N(C(=O)N(C)C)C1 (atropisomer, axis not shown) . Fill in? 6.00 to 7.00

---

# Tested on: A549 cells (KRAS G12S)
# assay.text: Cell-based pERK HTRF assay in A549 cells (Biological Example 5)
assay.endpoint: IC50

Report IC50 for "CN(c1nc(OC[C@@]23CCCN2C[C@H](F)C3)nc2c(F)c(-c3ccc(F)c4sc(N)c(C#N)c34)c(C(F)(F)F)cc12)[C@H]1C[C@@H](O)C1" please. 100 to 1000 nM

---

# target: Avi-KRAS G12D (1-169) GppNHp/RAF1 RBD-3xFLAG (52-151) (Homo sapiens, UniProt P01116, G12D)
# Construct: Avi-KRAS G12D (1-169)
# Sequence (P01116 1-169 isoform P01116-2 G12D): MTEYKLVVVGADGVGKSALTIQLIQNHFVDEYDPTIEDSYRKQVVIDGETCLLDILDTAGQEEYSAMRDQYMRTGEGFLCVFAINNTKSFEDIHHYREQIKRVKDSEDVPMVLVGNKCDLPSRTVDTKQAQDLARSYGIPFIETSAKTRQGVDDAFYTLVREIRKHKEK
# assay.text: Raf1-KRAS G12D-GppNHP disruption HTRF assay (Biological Example 1)
# Assay type: binding
# conditions: KRAS G12D, GppNHp-loaded; Table 11
assay.endpoint: IC50

A selection of reference data follows.
{"compound": "CN(c1nc(OC[C@@]23CCCN2C[C@H](F)C3)nc2c(F)c(-c3ccc(F)c4sc(N)c(C#N)c34)c(C#N)cc12)[C@H]1C[C@@H](O)C1", "experimental.value": "100 to 1000 nM"}
{"compound": "N#Cc1c(N)sc2c(F)ccc(-c3c(C(F)(F)F)cc4c(N5CC(O)C5)nc(OC[C@@]56CCCN5C[C@H](F)C6)nc4c3F)c12", "experimental.value": "100 to 1000 nM"}
{"compound": "CCN(CCO)c1nc(OC[C@@H]2C[C@@H](OC)CN2C)nc2c(F)c(-c3ccc(F)c4sc(N)c(C#N)c34)c(C(F)(F)F)cc12", "experimental.value": "100 to 1000 nM"}
{"compound": "C[C@H](CO)N(C)c1nc(OC[C@@]23CCCN2C[C@H](F)C3)nc2c(F)c(-c3ccc(F)c4sc(N)c(C#N)c34)c(C(F)(F)F)cc12", "experimental.value": "< 100 nM"}

Report IC50 for "N#Cc1c(N)sc2c(F)ccc(-c3c(C(F)(F)F)cc4c(N5C6CCC5COC6)nc(OC[C@@]56CCCN5C[C@H](F)C6)nc4c3F)c12" please. 100 to 1000 nM

Report IC50 for "CN(C[C@@H](O)CO)c1nc(OC[C@@]23CCCN2C[C@H](F)C3)nc2c(F)c(-c3ccc(F)c4sc(N)c(C#N)c34)c(C(F)(F)F)cc12" please. < 100 nM
